- TARGET_UNDER_TEST: T1, human Angiopoietin-2 (human, UniProt O15123 19-496)
- T1 construct: Mostly bought recombinant protein (R&D Systems 623-AM/CF, 623-AN; biotinylated BT623) or supernatant of transfected 293F cells; also called Ang-2; rhAng-2
- T1 sequence: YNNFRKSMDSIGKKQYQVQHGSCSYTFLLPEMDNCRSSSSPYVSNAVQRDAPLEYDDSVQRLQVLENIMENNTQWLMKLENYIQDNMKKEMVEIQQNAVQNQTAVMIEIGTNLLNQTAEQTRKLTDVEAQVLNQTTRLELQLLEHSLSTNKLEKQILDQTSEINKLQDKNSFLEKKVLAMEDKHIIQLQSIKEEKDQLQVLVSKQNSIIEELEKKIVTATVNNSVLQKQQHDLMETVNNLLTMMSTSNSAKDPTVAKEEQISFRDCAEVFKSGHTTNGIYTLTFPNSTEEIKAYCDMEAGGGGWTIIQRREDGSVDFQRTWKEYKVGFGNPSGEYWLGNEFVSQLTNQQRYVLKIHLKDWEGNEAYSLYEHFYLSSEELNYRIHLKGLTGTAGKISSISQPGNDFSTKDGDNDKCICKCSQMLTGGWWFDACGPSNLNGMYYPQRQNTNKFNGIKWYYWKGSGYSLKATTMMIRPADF
- ASSAY_COMMENT: competition ELISA: biotin-Ang-2 on coated Tie2/Fc
Efficacy (ratio of bound Ang-2 with mAb 30 µg/ml versus without) reference
Please state the figure in ratio; there is no need to write the unit.

*Q* Look up Efficacy (ratio of bound Ang-2 with mAb 30 µg/ml versus without): mAb 3.3.2 (antibody, V domains shown, Human hybridoma IgG (XenoMouse); also called 3.3.1; x3.3) VH: EVQLVESGGGLVQPGGSLRLSCAVSGFTFSSYWMSWVRQAPGKGLEWVANIKQDGSEKYYVDSVKGRFTISRDNAKNSLYLQMNSLRAEDTAVYYCARDQGIAVAGPFDYWGQGTLVTVSS VL: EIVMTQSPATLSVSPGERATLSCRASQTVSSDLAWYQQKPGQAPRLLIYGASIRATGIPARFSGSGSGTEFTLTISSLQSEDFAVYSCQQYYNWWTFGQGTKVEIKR
*A* 0.388

*Q* And what about the binder mAb 5.28.1 (antibody, V domains shown, Human hybridoma IgG (XenoMouse); also called x5.28) VH: EVQLVESGGIVVQPGGSLRLSCAASGFTFDDYTMHWVRQTPGKGLEWVSLISWDGGSTYYADSVKGRFTISRDNSKNSLYLQMNSLRTEDTALYYCAKDIDIAVAGTGFDHWGQGTLVTVSS VL: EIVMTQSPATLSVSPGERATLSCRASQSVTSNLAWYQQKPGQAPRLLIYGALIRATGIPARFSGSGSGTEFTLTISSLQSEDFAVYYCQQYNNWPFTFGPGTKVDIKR ?
*A* 0.389

*Q* And what about the binder mAb 5.86.1 (antibody, V domains shown, Human hybridoma IgG (XenoMouse); also called x5.86) VH: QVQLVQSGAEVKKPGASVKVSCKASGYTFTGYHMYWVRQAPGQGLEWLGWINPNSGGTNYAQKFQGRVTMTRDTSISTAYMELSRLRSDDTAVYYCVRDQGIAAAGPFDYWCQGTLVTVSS VL: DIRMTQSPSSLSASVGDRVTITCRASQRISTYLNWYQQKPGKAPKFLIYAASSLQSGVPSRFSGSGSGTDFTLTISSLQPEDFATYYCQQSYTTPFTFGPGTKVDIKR ?
*A* 0.384

Where these numbers come from: patent US20080267971A1
